study_target: mDUSP-H1 (DUSP-H1 from monkeypox virus) (Monkeypox virus, UniProt A0A7H0DN78)
Sequence (A0A7H0DN78 whole entry, looked up): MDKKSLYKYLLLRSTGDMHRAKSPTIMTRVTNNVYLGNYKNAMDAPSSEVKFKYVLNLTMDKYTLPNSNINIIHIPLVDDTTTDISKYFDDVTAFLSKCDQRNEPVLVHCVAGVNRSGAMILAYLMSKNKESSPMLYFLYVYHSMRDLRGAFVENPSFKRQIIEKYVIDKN
assay_protocol: biochemical
Type: biochemical
measured_property: mDUSP-H1 reactivity compared to the DMSO control

- C[C@@H]1O[C@@H](O[C@H]2[C@H](Oc3cc(O)c4c(c3)O[C@H](c3ccc(O)cc3)CC4=O)O[C@H](CO)[C@@H](O)[C@@H]2O)[C@H](O)[C@H](O)[C@H]1O [Naringin]: relatively unchanged
- COc1ccc(-c2cc(=O)c3c(O)cc(O)cc3o2)cc1O [Diosmetin]: relatively unchanged

====

study_target: mDUSP-H1 (DUSP-H1 from monkeypox virus) (Monkeypox virus, UniProt A0A7H0DN78)
assay_protocol: biochemical
Format: biochemical
measured_property: mDUSP-H1 reactivity compared to the DMSO control

• COc1ccc(-c2cc(=O)c3c(O)c(OC)c(O[C@@H]4O[C@H](CO[C@@H]5O[C@@H](C)[C@H](O)[C@@H](O)[C@H]5O)[C@@H](O)[C@H](O)[C@H]4O)cc3o2)cc1 = relatively unchanged
• C[C@@H]1O[C@@H](Oc2c(-c3ccc(O)c(O)c3)oc3cc(O)cc(O)c3c2=O)[C@H](O)[C@H](O)[C@H]1O = relatively unchanged
• COc1cc2oc(-c3ccc(O)c(O)c3)cc(=O)c2c(O)c1OC = relatively unchanged
